# Test system: primary human mesenchymal stem cells (hMSCs)
# TEST_PROTOCOL: Induction of chondrogenesis in human mesenchymal stem cells (nodule area, Rhodamine B/Nile Red)
# Type: cell-based
# CONDITION_INFO: hMSC chondrogenesis, relative to TGF-β3 (10 ng/mL) positive control, read-out: Max. Activity as % TGF-β3 activity
Give Emax for every item shown.
Reply with just the number (in %).

Name the reported Emax value associated with the compound c1cncc(-c2ccc3[nH]nc(-c4cc5c(-c6ccsc6)ccnc5[nH]4)c3c2)c1
39

Request: CCNCc1cncc(-c2ccc3[nH]nc(-c4cc5c(-c6cccc(F)c6)ccnc5[nH]4)c3c2)c1
59

Request: CN(C)Cc1cncc(-c2ccc3[nH]nc(-c4cc5c(-c6cccc(F)c6)ccnc5[nH]4)c3c2)c1
48

Request: c1cncc(-c2ccnc3[nH]c(-c4n[nH]c5ccc(-c6cncc(CN7CCCCC7)c6)cc45)cc23)c1
62

Request: Nc1cncc(-c2ccc3[nH]nc(-c4cc5cccnc5[nH]4)c3c2)c1
36

Request: O=C(Nc1cncc(-c2ccc3[nH]nc(-c4cc5c(-c6ccncc6)ccnc5[nH]4)c3c2)c1)c1ccccc1
19

Request: CN(C)Cc1cncc(-c2cc3c(-c4cc5c(-c6cccc(F)c6)ccnc5[nH]4)n[nH]c3cc2F)c1
28

Request: c1cnc2[nH]c(-c3n[nH]c4ccc(-c5cncc(OCCN6CCCC6)c5)cc34)cc2c1
43

Request: CCCCC(=O)Nc1cncc(-c2ccc3[nH]nc(-c4cc5c(-c6ccncc6)ccnc5[nH]4)c3c2)c1
18

Request: CN1CCN(c2ccnc3[nH]c(-c4n[nH]c5ccc(-c6cncc(CN7CCCC7)c6)cc45)cc23)CC1
22

Request: O=C(Nc1cncc(-c2ccc3[nH]nc(-c4cc5c(-c6ccncc6)ccnc5[nH]4)c3c2)c1)C1CCC1
73
